# System: Streptococcus pyogenes
# assay.summary: Antibacterial activity against MLS-resistant Streptococcus pyogenes 01-968 expressing inducible ermB gene assessed as reduction in microbial growth by CLSI based two-fold broth dilution method
# Format: functional
property.name: MIC (µg/mL)
# value in µg/mL; strip the unit string

Q. Given CC[C@H]1OC(=O)[C@@](C)(F)C(=O)[C@H](C)[C@@H](O[C@@H]2O[C@H](C)C[C@H](N(C)C)[C@H]2O)[C@](C)(OC)C[C@@H](C)/C(=N\OCC#Cc2cnc(N)c3ccccc23)[C@H](C)[C@H]2OC(=O)O[C@@]21C , state its recorded MIC.
A. 1

====

# System: Streptococcus pneumoniae
# assay.summary: Bactericidal activity against erythromycin-susceptible Streptococcus pneumoniae ATCC49619 pretreated followed by subculture in absence of compound measured after 24 hrs
# Format: functional
property.name: MBC (µg/mL)
# value in µg/mL; strip the unit string

Q. Given CC[C@H]1OC(=O)[C@@](C)(F)C(=O)[C@H](C)[C@@H](O[C@@H]2O[C@H](C)C[C@H](N(C)C)[C@H]2O)[C@](C)(OC)C[C@@H](C)/C(=N\OCC#Cc2cnc(N)c3ccccc23)[C@H](C)[C@H]2OC(=O)O[C@@]21C , state its recorded MBC.
A. 4

====

# System: Moraxella catarrhalis
# assay.summary: Antibacterial activity against erythromycin-susceptible Moraxella catarrhalis 13L332 assessed as reduction in microbial growth by CLSI based two-fold broth dilution method
# Assay type: functional
property.name: MIC (µg/mL)
# value in µg/mL; strip the unit string

{"columns": ["molecule", "unit.info", "MIC"],
 "data": [
  ["CC[C@H]1OC(=O)[C@@](C)(F)C(=O)[C@H](C)[C@@H](O[C@@H]2O[C@H](C)C[C@H](N(C)C)[C@H]2O)[C@](C)(OC)C[C@@H](C)/C(=N\\OC/C=C/c2ccc3c(c2)c(=O)c(C(=O)NC)cn3CC)[C@H](C)[C@H]2OC(=O)O[C@@]21C", "µg/mL", 8],
  ["CC[C@H]1OC(=O)[C@H](C)C(=O)[C@H](C)[C@@H](O[C@@H]2O[C@H](C)C[C@H](N(C)C)[C@H]2O)[C@](C)(OC)C[C@@H](C)C(=O)[C@H](C)[C@H]2N(CCCCn3cnc(-c4cccnc4)c3)C(=O)O[C@]12C", "µg/mL", 0.25],
  ["CC[C@H]1OC(=O)[C@@](C)(F)C(=O)[C@H](C)[C@@H](O[C@@H]2O[C@H](C)C[C@H](N(C)C)[C@H]2O)[C@](C)(OC)C[C@@H](C)/C(=N\\OC/C=C/c2ccc3c(c2)c(=O)c(C(N)=O)cn3CC)[C@H](C)[C@H]2OC(=O)O[C@@]21C", "µg/mL", 4]
]}

Q. Given CC[C@H]1OC(=O)[C@@](C)(F)C(=O)[C@H](C)[C@@H](O[C@@H]2O[C@H](C)C[C@H](N(C)C)[C@H]2O)[C@](C)(OC)C[C@@H](C)/C(=N\OCC#Cc2ccc3c(c2)c(=O)c(C(=O)NC)cn3CC)[C@H](C)[C@H]2OC(=O)O[C@@]21C , state its recorded MIC.
A. 4

====

In this section, each of the compounds is paired with its reported Selectivity ratio.
# Tested on: Staphylococcus aureus
# assay.summary: Selectivity ratio of MBC to MIC for MLS/methicillin-resistant Staphylococcus aureus PU 32 expressing inducible ermA gene
# Assay type: functional

Answered cases to consult:
{"columns": ["molecule", "Selectivity ratio"],
 "data": [
  ["CC[C@H]1OC(=O)[C@@](C)(F)C(=O)[C@H](C)[C@@H](O[C@@H]2O[C@H](C)C[C@H](N(C)C)[C@H]2O)[C@](C)(OC/C=C/c2ccc3[nH]ccc(=O)c3c2)C[C@@H](C)/C(=N\\OC)[C@H](C)[C@H]2OC(=O)O[C@@]21C", 8],
  ["CC[C@H]1OC(=O)[C@@](C)(F)C(=O)[C@H](C)[C@@H](O[C@@H]2O[C@H](C)C[C@H](N(C)C)[C@H]2O)[C@](C)(OC)C[C@@H](C)/C(=N\\OCC#Cc2cncc(NC(C)=O)c2)[C@H](C)[C@H]2OC(=O)O[C@@]21C", ">8"],
  ["CC[C@H]1OC(=O)[C@@](C)(F)C(=O)[C@H](C)[C@@H](O[C@@H]2O[C@H](C)C[C@H](N(C)C)[C@H]2O)[C@](C)(OC/C=C/c2ccc3c(c2)c(=O)c(C(=O)NC)cn3CC)C[C@@H](C)/C(=N\\OC)[C@H](C)[C@H]2OC(=O)O[C@@]21C", ">8"],
  ["CC[C@H]1OC(=O)[C@@](C)(F)C(=O)[C@H](C)[C@@H](O[C@@H]2O[C@H](C)C[C@H](N(C)C)[C@H]2O)[C@](C)(OC)C[C@@H](C)/C(=N\\OCC#Cc2ccc3c(c2)c(=O)c(C(=O)NC)cn3CC)[C@H](C)[C@H]2OC(=O)O[C@@]21C", ">8"]
]}

Q. Given CC[C@H]1OC(=O)[C@@](C)(F)C(=O)[C@H](C)[C@@H](O[C@@H]2O[C@H](C)C[C@H](N(C)C)[C@H]2O)[C@](C)(OC)C[C@@H](C)/C(=N\OC/C=C/c2cncc(N)c2)[C@H](C)[C@H]2OC(=O)O[C@@]21C , state its recorded Selectivity ratio.
A. >8

Q. Given CC[C@H]1OC(=O)[C@@](C)(F)C(=O)[C@H](C)[C@@H](O[C@@H]2O[C@H](C)C[C@H](N(C)C)[C@H]2O)[C@](C)(OC)C[C@@H](C)/C(=N\OCC#Cc2ccc([N+](=O)[O-])nc2)[C@H](C)[C@H]2OC(=O)O[C@@]21C , state its recorded Selectivity ratio.
A. 8

Q. Given CC[C@H]1OC(=O)[C@@](C)(F)C(=O)[C@H](C)[C@@H](O[C@@H]2O[C@H](C)C[C@H](N(C)C)[C@H]2O)[C@](C)(OC)C[C@@H](C)/C(=N\OCC#Cc2cncc(C(N)=O)c2)[C@H](C)[C@H]2OC(=O)O[C@@]21C , state its recorded Selectivity ratio.
A. >8

Q. Given CC[C@H]1OC(=O)[C@@](C)(F)C(=O)[C@H](C)[C@@H](O[C@@H]2O[C@H](C)C[C@H](N(C)C)[C@H]2O)[C@](C)(OC)C[C@@H](C)/C(=N\OC/C=C/c2ccc3ncc(C(=O)O)cc3c2)[C@H](C)[C@H]2OC(=O)O[C@@]21C , state its recorded Selectivity ratio.
A. >8

Data origin: ChEMBL document CHEMBL4346654
